- Procedure summary: MTS cytotoxicity assay in Vero cells
- Test context: African green monkey
Metric name: CC50 at 4 days

Data request: Specify CC50 at 4 days for O=C(O)[C@H]1O[C@@H](Oc2cc3oc(-c4ccccc4)cc(=O)c3c(O)c2O)[C@H](O)[C@@H](O)[C@@H]1O [Baicalin, baicalin] and stop.
Data returned: > 100 µM

----------
- Procedure summary: Cytotoxicity in Calu3 cells
- Test context: human
CC50: recorded values

{"Compound": "O=C(O)[C@H]1O[C@@H](Oc2cc3oc(-c4ccccc4)cc(=O)c3c(O)c2O)[C@H](O)[C@@H](O)[C@@H]1O", "Metric name": "CC50", "Observed measurement": "> 100 µM"}

Now for another entry.
Data request: State, in one line, measured CC50 of CCC(CC)COC(=O)[C@H](C)N[P@](=O)(OC[C@H]1O[C@@](C#N)(c2ccc3c(N)ncnn23)[C@H](O)[C@@H]1O)Oc1ccccc1 [Remdesivir, reference compound]
Data returned: > 100 µM

----------
- Procedure summary: Cytotoxicity in Calu3 cells
- Test context: human, Calu3 cells
Metric name: CC50
Report field: quantity (unit follows the number).

Data request: Given "O=c1cc(-c2ccccc2)oc2cc(O)c(O)c(O)c12" , respond with its CC50.
Data returned: 91 µM

----------
- System: SARS-CoV-2
- Procedure summary: SARS-CoV-2 antiviral activity assay in Calu-3 cells
- Type: cell-based
- Test context: Severe acute respiratory syndrome coronavirus 2, Calu-3, read-out: Antiviral Activity against SARS-CoV-2 Calu-3 EC50
Metric name: EC50

Data request: Return reported EC50 for target or system SARS-CoV-2, item CCC(CC)COC(=O)[C@H](C)N[P@](=O)(OC[C@H]1O[C@@](C#N)(c2ccc3c(N)ncnn23)[C@H](O)[C@@H]1O)Oc1ccccc1 [Remdesivir, reference compound] .
Data returned: 140 nM

----------
- Test system: SARS-CoV-2
- Procedure summary: microbe, parasite or virus in culture
- Format: cell-based
- Test context: Severe acute respiratory syndrome coronavirus 2, Vero, 48 h, read-out: Antiviral Activity against SARS-CoV-2 Vero EC50
Metric name: pEC50
Keep it numeric: pEC50 is minus log10 of the concentration in mol/L.

Data request: Specify reported pEC50 for the compound shown: CCC(CC)COC(=O)[C@H](C)N[P@](=O)(OC[C@H]1O[C@@](C#N)(c2ccc3c(N)ncnn23)[C@H](O)[C@@H]1O)Oc1ccccc1 [Remdesivir, reference compound]
Data returned: 6.00

Provenance of the data: paper PMC8143456
